Give percent blockade of GAL3-ITGb3 interaction for every item shown.
target: T1, Human GAL3 protein (TrueBinding, QCB200349 / QCB200352; R&D Systems, 8259-GA) (human, UniProt P17931 2-250); assay: blocking ELISA (GAL3 coated; antibody + biotinylated ITGb3)
T1 construct: also called human galectin-3
T1 sequence (P17931 2-250 limits assumed): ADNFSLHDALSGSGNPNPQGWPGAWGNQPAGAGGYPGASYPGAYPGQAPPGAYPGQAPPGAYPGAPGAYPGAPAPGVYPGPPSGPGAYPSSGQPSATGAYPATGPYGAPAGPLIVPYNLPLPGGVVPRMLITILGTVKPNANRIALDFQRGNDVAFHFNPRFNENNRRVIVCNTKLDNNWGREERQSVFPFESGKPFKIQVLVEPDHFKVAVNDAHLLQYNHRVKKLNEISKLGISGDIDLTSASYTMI

Would you please look over these solved cases?
Binder | Result
19B5.2E6 (antibody, V domains shown) VH: QIQLVQSGPELKKPGETVKISCKASGYTFTTYAMSWVKQAPGKGLKWMGWINTYSGVPTYADDLKGRFAFSLETSASTAYLQINNLKNEDTATYFCARGPYAMDYWGQGTSVTVSS VL: DIQMTQTTSSLSASLGDRVTISCSASQGINNYLNWYQQKPDGTVKLLIYYASSLHSGVPSRFSGSGSGTDYSLTISNLEPEDIATYYCQQYSQVPYTFGSGTKLEIK | > 90%
13G4.2F8 (antibody, V domains shown) VH: QVQLQQPGAELVKPGASVKLSCKASGYTFTSYWMHWVKQRPGQGLEWIGMIHPNSGSTDYNEKFKNKATLNVDKSSSTAYIQLSSLTSEDSAVYYCTRWGIYYYARDYWGQGTTLTVSS VL: DIVMTQSQKFMSTSVGERVSITCKASQNVGTNVAWYQQKAGQSLELLIYGASNRHTGVPDRFTGSGSGTDFTLTITNVQSEDMTNYFCEQYSNFPLTFGAGTKLELK | < 10%

Consider the additional binder presented here.
# percent blockade of GAL3-ITGb3 interaction of F847C.26F5 (antibody, V domains shown, also called 847.26F5) VH: QIQLVQSGPEVKKPGETVKISCKASGYIFTNYGMNWVKQAPGKGLKWMGWINTYTGEPTYTDDFKGRFAFSLETSASTAYLQINNLKNEDTATYFCAKFGNYVGAMDYWGQGTSVTVSS VL: EIKMNQSPSSLSASLGDTITITCHASQNINVWLSWYQQKPGNIPKLLIYKASNLHTGVPSRFSGSGSGTGFTLTISSLQPEDIATYYCQQGQSYPYTFGGGTKLELK = > 90%
